From: patent US20190201542A1

Target: T1, human DLL3 (human, UniProt Q9NYJ7 27-492, limits assumed)
T1 construct: also called hDLL3; DLL3 protein
T1 sequence: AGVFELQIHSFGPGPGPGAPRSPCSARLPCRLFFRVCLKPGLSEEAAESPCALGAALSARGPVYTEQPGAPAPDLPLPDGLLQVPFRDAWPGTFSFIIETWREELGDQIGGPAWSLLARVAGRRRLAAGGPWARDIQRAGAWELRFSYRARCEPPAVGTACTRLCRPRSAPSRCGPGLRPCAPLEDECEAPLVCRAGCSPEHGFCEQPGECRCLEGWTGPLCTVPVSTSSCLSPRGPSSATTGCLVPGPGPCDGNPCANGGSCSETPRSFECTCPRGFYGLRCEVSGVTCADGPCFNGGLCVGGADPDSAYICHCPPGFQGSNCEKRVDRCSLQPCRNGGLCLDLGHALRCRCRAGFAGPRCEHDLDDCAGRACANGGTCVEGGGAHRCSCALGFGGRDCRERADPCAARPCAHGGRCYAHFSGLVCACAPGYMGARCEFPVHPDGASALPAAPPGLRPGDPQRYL
Assay: screen on immobilized hDLL3 or h293-hDLL3 cells

{"columns": ["Binder", "binding result"],
 "data": [
  ["SC16.80 (antibody, V domains shown, murine mAb) VH: EVQLQQSGPELVKPGGSKKISCKASGYSFTGYSMNWVKQSHGKNLEWIGLINPYSGGTIYNQKFKGKATLTVDKSSSTAYMELLSLTSEDSAVYYCARRSDYPLVYWGQGTLVTVSA VL: ETTVTQSPASLSMAIGEKVTIRCITSTDIDDDMIWYQQKPGEPPKLLISEGNTLRPGVPSRFSSSGYGTDFVFTIENMLSEDVADYYCLKRDDLPYTFGGGTQVEIK", "binds"],
  ["SC16.123 (antibody, V domains shown, murine mAb) VH: QVALKESGPGILQPSQTLSLTCSFSGFSLSTSGMGVGWIRQPSGKGLEWLAHIWWDDVKRYNPALKSRLTISKDTSSSQVFLKIASVDTADTATYYCARMEDYGSSSYFDFWGHGTTLTVSS VL: QIVLTQSPAIMSASLGERVTMTCTASSSVSSSYLHWYQQKPGSSPKLWIYSTSNLASGVPARFSGSGSGTSYSLTISSMETEDAATYYCHQYHRSPFTFGSGTKLEIK", "binds"],
  ["SC16.30 (antibody, V domains shown, murine mAb) VH: QVTLKESGPGILQPSQTLSLTCSFSGFSLSTSGMGVGWIRQPSGKGLEWLAHIWWDDVKRYKPALKSRLTVSKDTSSNQVFLKIATVDAADTGTYYCARIVDGHPPFAYWGQGTLVTVSA VL: QIVLTQSPTIMSASLGERVTMTCTASSSVTSSYLHWYQQKPGSSPKLWIYSTSNLASGVPARFSGSGSGTSYSLTISSMEAEDAATYYCHQFHRSPFTFGSGTKLEIK", "binds"]
]}
